Assay: Microsomal stability assay, human
Format: in vitro ADME
Details: human microsomes, read-out: Microsomal Stability (T1/2 min) Human
measure: half-life

Consider the following illustrative entries.
Documented half-life of CC(C)c1ccc2c(c1)C(c1ccc(F)cc1)=C(CN1CCCC1)CO2 : 10 to 30 min

Documented half-life of Fc1ccc(C2=C(CN3CCOCC3)COc3ccc(OC(F)F)cc32)cc1 : 10 to 30 min

Documented half-life of N#CCCOc1ccc2c(c1)C(c1ccc(F)cc1)=C(CN1CCCC1)CO2 : 10 to 30 min

***
Documented half-life of CN1CCN(CCOc2ccc3c(c2)C(c2ccc(F)cc2)=C(C(=O)N2CCCC2)CO3)CC1 : < 10 min

----------
Assay: Microsomal stability assay, mouse
Format: in vitro ADME
Settings: mouse microsomes, read-out: Microsomal Stability (T1/2 min) Mouse
Some molecules, each annotated with its measured half-life.

Documented half-life of CC(C)Oc1ccc2c(c1)C(c1ccc(F)cc1)=C(CN1CCCC1)CO2 : < 10 min

Documented half-life of CN1CCN(CC2=C(c3ccc(F)cc3)c3cc(OC(F)(F)F)ccc3OC2)CC1 : > 30 min

Documented half-life of [2H]C([2H])([2H])Oc1ccc2c(c1)C(c1ccc(F)cc1)=C(CN1CCCC1)CO2 : < 10 min

Documented half-life of CC(C)(O)CCOc1ccc2c(c1)C(c1ccc(F)cc1)=C(C(=O)N1CCCC1)CO2 : < 10 min

Documented half-life of CC(C)c1ccc2c(c1)C(c1ccc(F)cc1)=C(CN1CCCC1)CO2 : < 10 min

Documented half-life of N#CCCOc1ccc2c(c1)C(c1ccc(F)cc1)=C(CN1CCCC1)CO2 : 10 to 30 min

Documented half-life of N/C(CCOc1ccc2c(c1)C(c1ccc(F)cc1)=C(CN1CCCC1)CO2)=N\O : 10 to 30 min

Documented half-life of CCNC(=O)C1=C(c2ccc(F)cc2)c2cc(OC(F)F)ccc2OC1 : < 10 min

----------
Some molecules, each annotated with its measured half-life.
Assay: Microsomal stability assay, human
Format: in vitro ADME
Conditions: human microsomes, read-out: Microsomal Stability (T1/2 min) Human

Consider the following illustrative entries.
Documented half-life of CCNC(=O)C1=C(c2ccc(F)cc2)c2cc(OC(F)(F)F)ccc2OC1 : > 30 min

Documented half-life of O=C(O)CCOc1ccc2c(c1)C(c1ccc(F)cc1)=C(CN1CCCC1)CO2 : > 30 min

Documented half-life of CC(C)Oc1ccc2c(c1)C(c1ccc(F)cc1)=C(C(=O)N1CCN(C)CC1)CO2 : 10 to 30 min

Documented half-life of COc1ccc2c(c1)C(c1ccc(Cl)cc1)=C(C(=O)N1CCN(C)CC1)CO2 : < 10 min

Documented half-life of O=C(C1=C(c2ccc(F)cc2)c2cc(OC(F)(F)F)ccc2OC1)N1CCCC1 : 10 to 30 min

***
Documented half-life of CN1CCN(C(=O)C2=C(c3ccc(F)cc3)c3cc(OC(F)F)ccc3OC2)CC1 : 10 to 30 min

Documented half-life of CN1CCN(C(=O)C2=C(c3ccc(F)cc3)c3ccccc3OC2)CC1 : < 10 min

Documented half-life of Fc1ccc(C2=C(CN3CCCC3)COc3ccc(F)cc32)cc1 : > 30 min

----------
Some compounds, each annotated with its measured half-life.
Experiment: Microsomal stability assay, rat
Assay type: in vitro ADME
Conditions: rat microsomes, read-out: Microsomal Stability (T1/2 min) Rat
Protocol: Microsomal stability assays were performed using mouse, rat, and human […] according to methods well-known in the art. Microsomal stability results are shown in Table 2 for selected compounds of the invention. The compound numbers correspond to the compound numbers in Table 1. […] “N/A” indicates not assayed.

Documented half-life of O=C(C1=C(c2ccc(F)cc2)c2cc(OC(F)(F)F)ccc2OC1)N1CCCC1 [Compound I-7] : < 10 min

Documented half-life of COc1ccc2c(c1)C(c1ccc(C#N)cc1)=C(C(=O)N1CCN(C)CC1)CO2 [Compound I-30] : 10 to 30 min

Documented half-life of N/C(CCOc1ccc2c(c1)C(c1ccc(F)cc1)=C(CN1CCCC1)CO2)=N\O [Compound I-36] : 10 to 30 min

Documented half-life of COc1ccc2c(c1)C(c1ccc(C(F)(F)F)cc1)=C(C(=O)N1CCN(C)CC1)CO2 [Compound I-29] : 10 to 30 min

Documented half-life of [2H]C([2H])([2H])Oc1ccc2c(c1)C(c1ccc(F)cc1)=C(CN1CCCC1)CO2 [Compound I-13] : < 10 min

***
Documented half-life of CN1CCN(C(=O)C2=C(c3ccc(F)cc3)c3cc(Cl)ccc3OC2)CC1 [Compound I-25] : < 10 min

Documented half-life of CC(C)(O)CCOc1ccc2c(c1)C(c1ccc(F)cc1)=C(CN1CCCC1)CO2 [Compound I-35] : < 10 min

Documented half-life of CC(C)c1ccc2c(c1)C(c1ccc(F)cc1)=C(C(=O)N1CCN(C)CC1)CO2 [Compound I-24] : < 10 min

All figures here come from patent US12319675B2.
